# Tested on: IgG fraction of anti-ampicillin antiserum (antibodies raised against the hapten-BSA immunogen of Example 2)
# CONDITION LABEL: Assay 2; concentration causing 50% displacement of signal; standards in TBST; ampicillin-HRP conjugate
Can you tell me IC50, Assay 2 for the items I'm about to list?
Numbers only, in ng/mL.

COMPOUND	ENDPOINT UNIT	IC50, Assay 2
CC1(C)S[C@@H]2[C@H](NC(=O)[C@H](N)c3ccccc3)C(=O)N2[C@H]1C(=O)O [Amp, ampicillin]	ng/mL	2.5

// each listed compound needs a value for IC50, Assay 2
1. CC1(C)S[C@@H]2[C@H](NC(=O)Cc3ccccc3)C(=O)N2[C@H]1C(=O)O [PenG, benzylpenicillin]
2. Cc1onc(-c2ccccc2)c1C(=O)N[C@@H]1C(=O)N2[C@@H]1SC(C)(C)[C@@H]2C(=O)O [Oxa, oxacillin]
3. Cc1onc(-c2ccccc2Cl)c1C(=O)N[C@@H]1C(=O)N2[C@@H]1SC(C)(C)[C@@H]2C(=O)O [Cloxa, cloxacillin]

Response given:
1: 3.2; 2: 7.0; 3: 5.8

// each listed compound needs a value for IC50, Assay 2
1. CC1(C)SC2C(NC(=O)C(N)c3ccc(O)cc3)C(=O)N2C1C(=O)O (stereo not drawn) [Amox, amoxycillin]
2. Cc1onc(-c2c(Cl)cccc2Cl)c1C(=O)N[C@@H]1C(=O)N2[C@@H]1SC(C)(C)[C@@H]2C(=O)O [Dicloxa, dicloxacillin]

Response given:
3.0
6.0
